Source listed as the supplement of paper PMC11451515.

System: NOMO1
test: cell viability relative to DMSO control; higher = less cytotoxic
condition notes: HPLM + 10% dialyzed FBS; 48 h; 0.00234 µM
# maps each entry to its cell viability
measurement type: cell viability (%)

| molecule | target desc | measurement type | recorded result |
| --- | --- | --- | --- |
| FC(F)c1nc2ccccc2n1-c1nc(N2CCOCC2)nc(N2CCOCC2)n1 | NOMO1 | cell viability | 93.8 |
| CC/1=C(/N2[C@H](SC1)[C@H](NC(=O)[C@H](N)\C3=C\C\C=C/C3)C2=O)C(O)=O | NOMO1 | cell viability | 110 |
| Cc1cnc(NC(=O)Nc2cc(Br)c(C)cc2OC[C@@H]2CNCCO2)cn1 | NOMO1 | cell viability | 130 |
| C=C[C@H]1CN2CC[C@H]1C[C@H]2[C@H](O)c1ccnc2ccc(OC)cc12 | NOMO1 | cell viability | 89.2 |
| CN(NC(=O)CC(=O)NN(C)C(=S)c1ccccc1)C(=S)c1ccccc1 | NOMO1 | cell viability | 101 |
| S=P(N1CC1)(N1CC1)N1CC1 | NOMO1 | cell viability | 105 |
| COc1cc2c(cc1OC)CC(=O)N(CCCN(C)C[C@H]1Cc3cc(OC)c(OC)cc31)CC2.Cl | NOMO1 | cell viability | 115 |
| O=C(O)c1ccc2c(c1)nc(Nc1cccc(Cl)c1)c1ccncc12 | NOMO1 | cell viability | 109 |
| COc1ccc(C2CNC(=O)C2)cc1OC1CCCC1 (stereo not given) | NOMO1 | cell viability | 105 |
| Cc1ccc([S+](=O)([O-])N[C@@H](Cc2ccccc2)C(=O)CCl)cc1 | NOMO1 | cell viability | 100 |

---

# maps each entry to its AUC of viability dose-response curve
System: SEM cells
test: AUC of viability dose-response curve (% viability x log10 dose units); higher = less sensitive
condition notes: HPLM + 10% dialyzed FBS; 48 h
measurement type: AUC of viability dose-response curve

| smiles data | target desc | measurement type | recorded result |
| --- | --- | --- | --- |
| CCn1c(-c2nonc2N)nc2cnc(Oc3cccc(NC(=O)c4ccc(OCCN5CCOCC5)cc4)c3)cc21 | SEM cells | AUC of viability dose-response curve | 457 |
| CCC[C@H]1C[C@H](C(=O)N[C@@H]([C@@H]2O[C@@H](SC)[C@@H](O)[C@@H](O)[C@H]2O)[C@H](C)Cl)N(C)C1 | SEM cells | AUC of viability dose-response curve | 447 |
| CC(=O)O[C@H]1C[C@@H]2CC[C@@H]3[C@H](CC[C@@]4(C)[C@H]3C[C@H]([N+]3(C)CCCCC3)[C@@H]4OC(C)=O)[C@@]2(C)C[C@@H]1N1CCCCC1 | SEM cells | AUC of viability dose-response curve | 470 |
| C[C@@H]1[C@H](O)[C@@H](C)/C=C/C=C/C=C/C=C/C=C/C=C/C=C/[C@H](O[C@@H]2O[C@H](C)[C@@H](O)[C@H](N)[C@@H]2O)C[C@@H]2O[C@](O)(C[C@@H](O)C[C@@H](O)[C@H](O)CC[C@@H](O)C[C@@H](O)CC(=O)O[C@H]1C)C[C@H](O)[C@H]2C(=O)O | SEM cells | AUC of viability dose-response curve | 450 |
| CN(C)[C@H]\1[C@@H]2C[C@H]3C(=C(O)\[C@]2(O)C(=O)\C(=C1O)C(N)=O)/C(=O)C4=C(O)C=CC=C4[C@@]3(C)O | SEM cells | AUC of viability dose-response curve | 426 |
| CN1CCN(c2ccc(C(=O)Nc3n[nH]c4ccc(Cc5cc(F)cc(F)c5)cc34)c(NC3CCOCC3)c2)CC1 | SEM cells | AUC of viability dose-response curve | 341 |
| COc1cc2ncnc(Nc3cc(Br)c(O)c(Br)c3)c2cc1OC | SEM cells | AUC of viability dose-response curve | 458 |
| O=C(O[C@H]1C[C@H]2CC[C@@H](C1)[N+]21CCCC1)C(O)(c1ccccc1)c1ccccc1.[Cl-] | SEM cells | AUC of viability dose-response curve | 460 |
| COC1=CC=C(C=C1)C/2=C/OC3=C(C(=CC(=C3)O)O)C2=O | SEM cells | AUC of viability dose-response curve | 463 |
| CCN1CCC(n2cc(CNc3cc(Cl)c4ncc(C#N)c(Nc5ccc(F)c(Cl)c5)c4c3)nn2)CC1 | SEM cells | AUC of viability dose-response curve | 433 |
| COc1cc(F)c(C(C)C)cc1-c1ccc(C(F)(F)F)cc1CN1C(=O)O[C@H](c2cc(C(F)(F)F)cc(C(F)(F)F)c2)[C@@H]1C | SEM cells | AUC of viability dose-response curve | 457 |
| CNC(=O)c1ccc(N2C(=S)N(c3ccc(C#N)c(C(F)(F)F)c3)C(=O)C23CCC3)cc1F | SEM cells | AUC of viability dose-response curve | 425 |
| O=C(Nc1ccccc1-c1cn2c(CN3CCNCC3)csc2n1)c1cnc2ccccc2n1 | SEM cells | AUC of viability dose-response curve | 364 |
| NC\1=N\C(=O)N(\C=C1)[C@@H]2O[C@H](CO)[C@@H](O)[C@H]2O | SEM cells | AUC of viability dose-response curve | 452 |

---

# maps each entry to its cell viability
Test system: NOMO1
test: cell viability relative to DMSO control; higher = less cytotoxic
condition notes: RPMI 5 mM glucose + 10% FBS; 48 h; 0.0632 µM
measurement type: cell viability (%)

| smiles data | recorded result |
| --- | --- |
| CC(C)(C)c1[nH]cnc1/C=c1\[nH]c(=O)/c(=C/c2ccccc2)[nH]c1=O | 28.9 |
| COc1cc2c(cc1OC)CC(=O)N(CCCN(C)C[C@H]1Cc3cc(OC)c(OC)cc31)CC2.Cl | 100 |
| CN1\C(=C(\O)C2=CC=CC=C2[S+]1([O-])=O)C(=O)NC3=NC=C(C)S3 | 98.7 |
| COc1cc(OC)c(/C=C/[S+](=O)([O-])Cc2ccc(OC)c(NCC(=O)[O][Na])c2)c(OC)c1 | 109 |

---

Test system: P12-Ichikawa
test: cell viability relative to DMSO control; higher = less cytotoxic
condition notes: HPLM + 10% dialyzed FBS; 48 h; 0.00234 µM
# maps each entry to its cell viability

| compound | unit string | cell viability |
| --- | --- | --- |
| Cc1cn([C@@H]2O[C@H](CO)[C@@H](O)[C@@H]2F)c(=O)[nH]c1=O | % | 112 |
| O=C(Nc1c(Cl)cncc1Cl)c1ccc(OC(F)F)c(OCC2CC2)c1 | % | 112 |
| COc1ccc(C2CNC(=O)C2)cc1OC1CCCC1 (stereo not given) | % | 100 |
| COC1=C2OC(=O)\C=C/C2=CC3=C1OC=C3 | % | 113 |
| O=C(c1ccc(Nc2nccc(-c3cc4ccccc4s3)n2)cc1)N1CCC(N2CCCC2)CC1 | % | 109 |
| COc1cc(OC)c(/C=C/[S+](=O)([O-])Cc2ccc(OC)c(NCC(=O)[O][Na])c2)c(OC)c1 | % | 124 |
| Cn1cnc2c1c(=O)[nH]c(=O)n2C | % | 107 |
| Cc1cnc(-c2cc(N3CCN(C(=O)CC[S+](C)(=O)[O-])CC3)ncc2Cl)c(C)c1 | % | 116 |
| N[C@H](CSC(c1ccccc1)(c1ccccc1)c1ccccc1)C(=O)O | % | 112 |
| COc1cc2ncnc(Nc3ccc(F)c(Cl)c3)c2cc1NC(=O)/C=C/CN1CCCCC1 | % | 108 |

---

Test system: SEM cells
test: cell viability relative to DMSO control; higher = less cytotoxic
condition notes: HPLM + 10% dialyzed FBS; 48 h; 0.569 µM
# maps each entry to its cell viability
measurement type: cell viability (%)

| molecule | recorded result |
| --- | --- |
| COc1ccc(-n2nc(C(N)=O)c3c2C(=O)N(c2ccc(N4CCCCC4=O)cc2)CC3)cc1 | 134 |
| Fc1ccc([C@@H]2CCNC[C@H]2COc2ccc3c(c2)OCO3)cc1 | 125 |
| FC(F)c1nc2ccccc2n1-c1nc(N2CCOCC2)nc(N2CCOCC2)n1 | 61.3 |
| FC1=CC=C(SC/2=N/N3\C=N/C(=O)/C(=C3/C=C2)C4=C(Cl)C=CC=C4Cl)C(=C1)F | 98.5 |
| OC(CN1CCC(Cc2ccc(F)cc2)CC1)c1ccc(Cl)cc1 (stereo unspecified) | 117 |
| CC(=O)N[C@H]1[C@H](O[C@@H]2c3ccc(c(Cl)c3)Oc3cc4cc(c3O[C@@H]3O[C@H](CO)[C@@H](O)[C@H](O)[C@H]3NC(=O)CCCCCCCC(C)C)Oc3ccc(cc3Cl)C[C@H]3NC(=O)[C@H](N)c5ccc(O)c(c5)Oc5cc(O)cc(c5)[C@H](NC3=O)C(=O)N[C@H]4C(=O)N[C@H]3C(=O)N[C@@H]2C(=O)N[C@@H](C(=O)O)c2cc(O)cc(O[C@H]4O[C@H](CO)[C@@H](O)[C@H](O)[C@@H]4O)c2-c2cc3ccc2O)O[C@H](CO)[C@@H](O)[C@@H]1O | 127 |
| CCC(C)(Oc1ccc(C2(c3ccc(OC(C)(CC)C(=O)O)cc3)CCCCC2)cc1)C(=O)O (stereo unspecified) | 105 |
| CCC(C)(C)c1ccc(CC(C)CN2C[C@@H](C)O[C@@H](C)C2)cc1 (stereo partly specified) | 74.7 |
| Nc1nc(Cl)nc2c1ncn2[C@H]1C[C@H](O)[C@@H](CO)O1 | 13.9 |
| O=C(O[C@H]1C[C@H]2CC[C@@H](C1)[N+]21CCCC1)C(O)(c1ccccc1)c1ccccc1.[Cl-] | 115 |
| C/C=C(/C)C(=O)O[C@H]1C(C)=C[C@]23C(=O)[C@@H](C=C(CO)[C@@H](O)[C@]12O)[C@H]1[C@@H](C[C@H]3C)C1(C)C | 72 |
